src = paper PMC5325326

# Procedure Text: Caco-2 monolayer transport study (apparent permeability, Papp) of rosemary extract compounds
# Settings: human, Caco-2, pH 7.4
Measure: Papp A→B at 120 min, 200 μg/mL (×10⁻⁶ cm/s)

Answered examples (3):
Molecule	Unit Abbrev	Papp A→B at 120 min, 200 μg/mL
COc1c(C(C)C)cc2c(c1O)[C@@]1(C(=O)O)CCCC(C)(C)[C@@H]1CC2	×10⁻⁶ cm/s	18.5
CC(C)c1cc2c(c(O)c1O)[C@@]1(C(=O)O)CCCC(C)(C)[C@@H]1CC2	×10⁻⁶ cm/s	127
CC1CCC2(C(=O)O)CCC3(C)C(=CCC4C5(C)CCC(O)C(C)(C)C5CCC43C)C2C1(C)O (centres unmarked)	×10⁻⁶ cm/s	5.2

(1) CC(C)c1cc2c(c(O)c1O)[C@@]13CCCC(C)(C)[C@@H]1[C@H](O)[C@@H]2OC3=O [Epiisorosmanol]
(2) CC(C)c1cc(C=O)c2c(c1O)OC(=O)[C@@]21CCCC(C)(C)[C@@H]1C=O
QUERY: Hi there! Just curious which has the higher Papp A→B at 120 min, 200 μg/mL between 1 and 2 . # respond with the chosen item's label
RESULT: 1

====

# Procedure Text: Caco-2 monolayer transport study (apparent permeability, Papp) of rosemary extract compounds
# Settings: human, Caco-2, pH 7.4
Measure: Papp B→A at 120 min (×10⁻⁶ cm/s)

Answered examples (3):
Compound	Papp B→A at 120 min, ×10⁻⁶ cm/s
CC(C)c1cc2c(c(O)c1O)C13CCCC(C)(C)C1C(OC3=O)C2O (stereo not drawn) [Epirosmanol]	2.63
CC(C)c1cc2c(c(O)c1O)[C@@]13CCCC(C)(C)[C@@H]1[C@H](O)[C@@H]2OC3=O [Epiisorosmanol]	13
CC(C)c1cc2c(c(O)c1O)[C@@]13CCCC(C)(C)[C@@H]1C[C@@H]2OC3=O	0.261

(A) Cc1cc2c(cc(O)c1=O)[C@@]13CCCC(C)(C)[C@@H]1C[C@@H]2OC3
(B) CC(C)c1cc(C=O)c2c(c1O)OC(=O)[C@@]21CCCC(C)(C)[C@@H]1C=O
QUERY: Could you tell me which of these two has the smaller Papp B→A at 120 min figure? First: A Second: B # respond with the chosen item's label
RESULT: A

====

# Procedure Text: Caco-2 monolayer transport study (apparent permeability, Papp) of rosemary extract compounds
# Settings: human, Caco-2, pH 7.4
Measure: Papp B→A at 120 min, 200 μg/mL (×10⁻⁶ cm/s)

Answered examples (2):
Compound	Papp B→A at 120 min, 200 μg/mL (×10⁻⁶ cm/s)
COc1c(O)cc2oc(-c3ccc(O)cc3)cc(=O)c2c1O	13.1
C[C@H]1[C@H](C)CC[C@]2(C(=O)O)CC[C@]3(C)C(=CC[C@@H]4[C@@]5(C)CC[C@H](O)C(C)(C)[C@@H]5CC[C@]43C)[C@H]12	7.2

(1) CC(C)c1cc2c(c(O)c1O)[C@@]13CCCC(C)(C)[C@@H]1[C@H](OC3=O)[C@H]2O
(2) C=C(C)[C@@H]1CC[C@]2(C(=O)O)CC[C@]3(C)[C@H](CC[C@@H]4[C@@]5(C)CC[C@H](O)C(C)(C)[C@@H]5CC[C@]43C)[C@@H]12
(3) CC(C)c1cc2c(c(O)c1O)[C@@]13CCCC(C)(C)[C@@H]1C[C@@H]2OC3=O
(4) COc1c(C(C)C)cc2c(c1O)[C@@]1(C(=O)O)CCCC(C)(C)[C@@H]1CC2
(5) CC(C)c1cc2c(c(O)c1O)C(=O)C1CCCC(C)(C)C1CC2 (stereo not shown)
QUERY: Arrange these 5 compounds in increasing order of Papp B→A at 120 min, 200 μg/mL. Please respond by ranking the labels in the order requested.
RESULT: 5, 2, 3, 4, 1
(5: 2.68 ×10⁻⁶ cm/s, 2: 6.3 ×10⁻⁶ cm/s, 3: 13.5 ×10⁻⁶ cm/s, 4: 27.7 ×10⁻⁶ cm/s, 1: 44.2 ×10⁻⁶ cm/s)

====

# Procedure Text: Caco-2 monolayer transport study (apparent permeability, Papp) of rosemary extract compounds
# Settings: human, Caco-2, pH 7.4
Measure: Papp B→A at 120 min, 200 μg/mL (nm/s)

Compound	Papp B→A at 120 min, 200 μg/mL / nm/s
COc1cc(O)c2c(=O)cc(-c3ccc(O)cc3)oc2c1	162

(P) C=C1CCC2(C(=O)O)CCC3(C)C(=CCC4C5(C)CCC(O)C(C)(C)C5CCC43C)C2C1C (stereo not shown)
(Q) CC(C)c1cc2c(c(O)c1O)[C@@]1(C(=O)O)CCCC(C)(C)[C@@H]1CC2
(R) CC1CCC2(C(=O)O)CCC3(C)C(=CCC4C5(C)CCC(O)C(C)(C)C5CCC43C)C2C1(C)O (stereo not shown)
QUERY: Arrange these 3 compounds in increasing order of Papp B→A at 120 min, 200 μg/mL. Please respond by ranking the labels in the order requested.
RESULT: P, R, Q
